Values from BindingDB's records for doi:10.1016/j.bmc.2008.07.062

In this section we review reported IC50 values for a set of compounds.
- test-summary: Antagonist activity at mouse CCR4 receptor assessed as inhibition of CCL22-induced chemotaxis by bioluminescent assay

# compound-structure, unit-spec, IC50
measured = [
    ("COc1cc2nc(N3CCC(N4CCCC4)CC3)nc(Nc3ccc(F)cc3)c2cc1OC", "nM", 710),
    ("COc1cc2nc(N3CCC(N4CCCC4)CC3)nc(Nc3ccc(F)c(F)c3)c2cc1OC", "nM", 820),
]

---

- test-summary: Antagonist activity at human CCR4 receptor assessed as inhibition of CCL22-induced chemotaxis by bioluminescent assay
pIC50: −log10 of the molar value.

# compound-structure, pIC50
rows = [
    ("COc1cc2nc(N3CCC(N4CCCC4)CC3)nc(Nc3ccc(F)cc3)c2cc1OC", 6.49),
    ("COc1cc2nc(N3CCC(N(C)CCCCO)CC3)nc(Nc3ccc(Cl)cc3)c2cc1OC", 6.44),
    ("COc1cc2nc(N3CCC(N4CCCC4)CC3)nc(Nc3ccc(F)c(F)c3)c2cc1OC", 7.16),
    ("COc1cc2nc(N3CCC(N(C)CCCO)CC3)nc(Nc3ccc(Cl)cc3)c2cc1OC", 6.55),
]
